# protocol: Human HepG2 cell viability assay in 384 well format
# Format: toxicity, cell-based
# Set-up: dose 125 nL, time 70.5 hour; concentration not given beside the values
# conditions: HepG2 cells, read-out: Inhibition
endpointName: cytotoxicity at 70.5 h (%)

| molecule | endpointName | readoutValue |
| --- | --- | --- |
| O=C(c1ccco1)N1CCCC(c2cc(C(F)F)n3ncnc3n2)C1 (centres undefined) | cytotoxicity at 70.5 h | -14.3 |
| CCS(=O)(=O)CCN(CC1CCCO1)C1CCCC1 (centres undefined) | cytotoxicity at 70.5 h | -2.46 |
| COc1ccccc1CN1CC[C@H]2C[C@@H](C(=O)N3CCCC3)O[C@H]2C1 | cytotoxicity at 70.5 h | -7.49 |
| Cc1c[nH]nc1C1CCCN1Cc1ncc[nH]1 (centres undefined) | cytotoxicity at 70.5 h | -2.22 |
| CC(C)CN1CCC(c2nnc(CN3CCCC3)n2C2CC2)CC1 | cytotoxicity at 70.5 h | -6.17 |
| CN(Cc1cc[nH]n1)C(=O)c1ccc2c(c1)nc(N1CC[C@H](O)C1)n2C | cytotoxicity at 70.5 h | -1.12 |
| CO[C@@H]1CN(c2ccccc2)S(=O)(=O)[C@@]12CCN(Cc1ccccc1)C2 | cytotoxicity at 70.5 h | -1.84 |
| N#CCCCn1cnc2c(F)cc(Br)cc2c1=O | cytotoxicity at 70.5 h | -5.69 |
| CC(C)c1nn(C)c(N(C)C)c1CNCC(O)COc1ccccc1 (centres undefined) | cytotoxicity at 70.5 h | -3.95 |
| Cn1cc(-c2cnc(N3CCOCC3)nc2)cc1C(=O)N1CCCC1 | cytotoxicity at 70.5 h | -27.5 |
| CNC(=O)c1ccccc1-c1ccc(S(C)(=O)=O)cc1 | cytotoxicity at 70.5 h | -4.9 |
| CC(=O)N1CCC2(CC1)CCN(C(=O)c1cccc(C(F)(F)F)c1)C2 | cytotoxicity at 70.5 h | -13.6 |
| CNc1cc2c(nn1)CCN(C(=O)c1ccoc1)C2 | cytotoxicity at 70.5 h | -6.62 |
| Cc1ccc2ncnc(N3CCOCC3c3c(C)nn(C)c3C)c2c1 (centres undefined) | cytotoxicity at 70.5 h | -11.7 |
| CC(C)N1CCC(c2nccnc2Nc2cnccn2)CC1 | cytotoxicity at 70.5 h | 17.9 |
| CCc1cc(N(C)Cc2nonc2C)nc(N2CCOCC2)n1 | cytotoxicity at 70.5 h | 1.99 |
| CC(NC(=O)N1CCC(c2ccccc2)CC1)c1nncn1C (centres undefined) | cytotoxicity at 70.5 h | -3.28 |
| Cc1ccc(CN2CCN(c3cncc(N(C)C)n3)CC2=O)cc1C | cytotoxicity at 70.5 h | -7.53 |
| COc1cc(NC2CCCN(c3ncccc3C#N)C2)cc(OC)c1 (centres undefined) | cytotoxicity at 70.5 h | 23 |
| CCc1ccc(CCC(=O)N2CCC(=O)Nc3cccnc32)cc1 | cytotoxicity at 70.5 h | 23.9 |
| CN(Cc1cc2n(n1)CCNC2)Cc1cc(-c2ccccn2)no1 | cytotoxicity at 70.5 h | -5.4 |
| CCNc1cc2c(nn1)CCN(C(=O)Cc1c(C)nn(C)c1C)C2 | cytotoxicity at 70.5 h | -2.18 |
| CCC1CN(C(=O)c2cnc(-c3cnn(C)c3)s2)CCO1 (centres undefined) | cytotoxicity at 70.5 h | -6.34 |
| CC1CS(=O)(=O)CCN1Cc1ccccc1OCC(F)(F)F (centres undefined) | cytotoxicity at 70.5 h | -6.75 |
| CNC(=O)c1ccc(OC)c(NCc2noc(-c3cccs3)n2)c1 | cytotoxicity at 70.5 h | -16.8 |
| Cc1nn(C)c(N2CCOCC2)c1CNCc1ccc(C(C)O)cc1 (centres undefined) | cytotoxicity at 70.5 h | -11.7 |
| c1cc(C2CCN(c3cncnc3)CC2)ccn1 | cytotoxicity at 70.5 h | 1.76 |
| COCCNc1cccc(C2CCCN2)n1 (centres undefined) | cytotoxicity at 70.5 h | -6.3 |
| CCN1C(=O)CCC12CCN(C(=O)c1ccco1)CC2 | cytotoxicity at 70.5 h | -11.8 |
